Test system: Human PPARγ LBD fusion protein
Test: Transcription activation potential, GAL4 luciferase reporter in C3A cells
Format: cell-based
Conditions: 100 μM test compound
REPORTED METRIC: transcription activation potential (luciferase) ± standard deviation (LCPS)

{"columns": ["COMPOUND", "OBSERVED MEASUREMENT"],
 "data": [
  ["Cc1cccc(C)c1COc1cccc(CCCC(=O)O)c1 [CE]", 37.7],
  ["Cc1cccc(C)c1COc1cccc(C(=O)O)c1 [Compound CG, 3-(2,6-Dimethylbenzyloxy)benzoic acid]", 403.6],
  ["Cc1cccc(C)c1COc1cccc(C(=O)CCC(=O)O)c1 [Compound BI]", 34.6],
  ["Cc1cccc(C)c1COc1cccc(CC(=O)O)c1 [Compound CF]", 225.2]
]}

---

System: db/db mice
Experiment: Antidiabetic effects in db/db mice, Example B (2 weeks daily oral dosing)
Assay type: in vivo, mouse
Conditions: serum, 2 weeks daily oral, dose not given in Table 17 (see Table 16)
Measured Free Fatty Acids ± SEM, listed per entry.
REPORTED METRIC: Free Fatty Acids ± SEM (µM)

{"columns": ["COMPOUND", "OBSERVED MEASUREMENT"],
 "data": [
  ["Cc1cccc(C)c1COc1cccc(C(=O)CCC(=O)O)c1", 1997.2],
  ["CC(C)OC(=O)C(C)(C)Oc1ccc(C(=O)c2ccc(Cl)cc2)cc1 [Fenofibrate, reference compound]", 3318.5],
  ["COc1cc(C(=O)CCC(=O)O)ccc1OCc1c(C)cccc1C", 3897.7],
  ["Cc1cccc(C)c1COc1cccc(CCCC(=O)O)c1", 2867.4]
]}

---

Measured transcription activation potential (luciferase) ± standard deviation, listed per entry.
Molecular target: Mouse PPARγ LBD fusion protein (Mus musculus, UniProt P37238)
Sequence (P37238 238-503): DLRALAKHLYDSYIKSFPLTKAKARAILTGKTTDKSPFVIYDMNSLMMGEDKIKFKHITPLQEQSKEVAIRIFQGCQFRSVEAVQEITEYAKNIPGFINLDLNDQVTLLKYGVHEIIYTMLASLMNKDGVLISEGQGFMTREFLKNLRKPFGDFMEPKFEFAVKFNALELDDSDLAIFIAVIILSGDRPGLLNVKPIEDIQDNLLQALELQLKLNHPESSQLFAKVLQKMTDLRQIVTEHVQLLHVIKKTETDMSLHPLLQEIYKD
Assay: Transcription activation potential, GAL4 luciferase reporter in C3A cells
Assay type: cell-based
Settings: 200 μM test compound, Table 20b
REPORTED METRIC: transcription activation potential (luciferase) ± standard deviation (LCPS)

{"columns": ["COMPOUND", "RESULT UNIT", "OBSERVED MEASUREMENT"],
 "data": [
  ["Cc1cccc(C)c1COc1cccc(CCCC(=O)O)c1 [CE]", "LCPS", 10.5],
  ["Cc1cccc(C)c1COc1cccc(C(=O)O)c1 [Compound CG, 3-(2,6-Dimethylbenzyloxy)benzoic acid]", "LCPS", 101.2],
  ["Cc1cccc(C)c1COc1cccc(C(=O)CCC(=O)O)c1 [Compound BI]", "LCPS", 65.77],
  ["Cc1cccc(C)c1COc1cccc(CC(=O)O)c1 [Compound CF]", "LCPS", 93.6]
]}

---

Target: Mouse PPARγ LBD fusion protein (Mus musculus)
Test: Transcription activation potential, GAL4 luciferase reporter in C3A cells
Type: cell-based
Details: 10 μM test compound, Table 20b
Measured transcription activation potential (luciferase) ± standard deviation, listed per entry.
REPORTED METRIC: transcription activation potential (luciferase) ± standard deviation (LCPS)

{"columns": ["MOLECULE", "OBSERVED MEASUREMENT"],
 "data": [
  ["Cc1cccc(C)c1COc1cccc(CC(=O)O)c1 [Compound CF]", 17.2],
  ["Cc1cccc(C)c1COc1cccc(C(=O)O)c1 [Compound CG, 3-(2,6-Dimethylbenzyloxy)benzoic acid]", 20.87],
  ["Cc1cccc(C)c1COc1cccc(C(=O)CCC(=O)O)c1 [Compound BI]", 2.2],
  ["Cc1cccc(C)c1COc1cccc(CCCC(=O)O)c1 [CE]", 6.03]
]}

---

Molecular target: Human PPARα LBD fusion protein (Homo sapiens, UniProt Q07869)
Construct: a.a; 167-468)
Sequence (Q07869 167-468): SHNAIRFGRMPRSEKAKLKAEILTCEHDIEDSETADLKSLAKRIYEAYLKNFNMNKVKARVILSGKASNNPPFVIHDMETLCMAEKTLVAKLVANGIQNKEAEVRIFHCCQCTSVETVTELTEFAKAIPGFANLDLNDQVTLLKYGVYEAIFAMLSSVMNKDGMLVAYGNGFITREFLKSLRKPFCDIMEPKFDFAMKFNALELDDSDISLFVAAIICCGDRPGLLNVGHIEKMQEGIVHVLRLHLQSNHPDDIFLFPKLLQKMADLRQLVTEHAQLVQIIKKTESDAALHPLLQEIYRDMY
Test: Transcription activation potential, GAL4 luciferase reporter in C3A cells
Format: cell-based
Settings: 100 μM
Procedure: Cells were seeded in 24 well plates the day prior to transfection at 5×10^4−2×10^5 cells/well, depending upon cell type. Cells were transfected using Lipofectamine 2000 reagent from Invitrogen. […] Approximately 10 μL of lysate was added to 100 μL of firefly luciferase substrate, mixed by pipetting, and analyzed on a luminometer for 10 s using the integration function (relative luciferase units/RLU) or on a Microbeta Trilux (luciferase counts per second/LCPS). […]
REPORTED METRIC: transcription activation potential (luciferase) ± standard deviation (LCPS)

{"columns": ["COMPOUND", "RESULT UNIT", "OBSERVED MEASUREMENT"],
 "data": [
  ["Cc1cccc(Nc2cc(Cl)nc(SCC(=O)O)n2)c1C [Wy, reference compound]", "LCPS", 412.23],
  ["Cc1cccc(C)c1COc1cccc(CC(=O)O)c1 [Compound CF]", "LCPS", 19],
  ["Cc1cccc(C)c1COc1cccc(C(=O)CCC(=O)O)c1 [Compound BI]", "LCPS", 20.9],
  ["Cc1cccc(C)c1COc1cccc(CCCC(=O)O)c1 [CE]", "LCPS", 6.33],
  ["Cc1cccc(C)c1COc1cccc(C(=O)O)c1 [Compound CG, 3-(2,6-Dimethylbenzyloxy)benzoic acid]", "LCPS", 23.9]
]}

---

Measured transcription activation potential (luciferase) ± standard deviation, listed per entry.
Molecular target: Human PPARα LBD fusion protein (Homo sapiens, UniProt Q07869)
Construct: a.a; 167-468)
Sequence (Q07869 167-468): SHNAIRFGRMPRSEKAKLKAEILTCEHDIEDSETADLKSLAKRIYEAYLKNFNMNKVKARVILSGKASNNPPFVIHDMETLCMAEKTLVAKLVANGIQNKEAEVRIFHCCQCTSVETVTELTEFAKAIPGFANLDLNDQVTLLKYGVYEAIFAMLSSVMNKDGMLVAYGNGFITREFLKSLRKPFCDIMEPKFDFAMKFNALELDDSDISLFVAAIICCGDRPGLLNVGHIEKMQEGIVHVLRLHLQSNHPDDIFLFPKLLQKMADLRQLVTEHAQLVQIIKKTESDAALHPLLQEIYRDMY
Experiment: Transcription activation potential, GAL4 luciferase reporter in C3A cells
Assay type: cell-based
Details: 10 μM
REPORTED METRIC: transcription activation potential (luciferase) ± standard deviation

{"columns": ["MOLECULE", "OBSERVED MEASUREMENT"],
 "data": [
  ["Cc1cccc(C)c1COc1cccc(CCCC(=O)O)c1", "26.2 ± 1.4 LCPS"],
  ["Cc1cccc(Nc2cc(Cl)nc(SCC(=O)O)n2)c1C [Wy, reference compound]", "315.4 ± 36.5 LCPS"],
  ["Cc1cccc(C)c1COc1cccc(C(=O)O)c1", "17.9 ± 5.2 LCPS"],
  ["Cc1cccc(C)c1COc1cccc(C(=O)CCC(=O)O)c1", "52.7 ± 8.2 LCPS"],
  ["Cc1cccc(C)c1COc1cccc(CC(=O)O)c1", "19.9 ± 7.8 LCPS"]
]}

---

Target: Mouse PPARγ LBD fusion protein (Mus musculus, UniProt P37238)
Assay: Transcription activation potential, GAL4 luciferase reporter in C3A cells
Type: cell-based
Conditions: 100 μM test compound, Table 20b
Method: Cells were seeded in 24 well plates the day prior to transfection at 5×10^4−2×10^5 cells/well, depending upon cell type. Cells were transfected using Lipofectamine 2000 reagent from Invitrogen. […] Approximately 10 μL of lysate was added to 100 μL of firefly luciferase substrate, mixed by pipetting, and analyzed on a luminometer for 10 s using the integration function (relative luciferase units/RLU) or on a Microbeta Trilux (luciferase counts per second/LCPS). […]
Measured transcription activation potential (luciferase) ± standard deviation, listed per entry.
REPORTED METRIC: transcription activation potential (luciferase) ± standard deviation (LCPS)

{"columns": ["TEST SMILES", "TESTED TARGET", "OBSERVED MEASUREMENT"],
 "data": [
  ["Cc1cccc(C)c1COc1cccc(CCCC(=O)O)c1", "Mouse PPARγ LBD fusion protein (Mus musculus, UniProt P37238)", 11.7],
  ["Cc1cccc(C)c1COc1cccc(C(=O)O)c1", "Mouse PPARγ LBD fusion protein (Mus musculus, UniProt P37238)", 78.8],
  ["Cc1cccc(C)c1COc1cccc(CC(=O)O)c1", "Mouse PPARγ LBD fusion protein (Mus musculus, UniProt P37238)", 45.8],
  ["Cc1cccc(C)c1COc1cccc(C(=O)CCC(=O)O)c1", "Mouse PPARγ LBD fusion protein (Mus musculus, UniProt P37238)", 2.63]
]}

Source: patent US7932290B2
